system: Wolbachia pipientis; assay: Anti-Wolbachia Cell-Based Screen; assay type: functional; set-up: scale not given: in the data most compounds retested in dose-response had high values; settings: 5 µM
Hit rate of the full screen: of about 48,000 compounds, about 13,000 (27%) showed an effect of 50% or more. Some of the results follow.
Listing of entries alongside the reported Percent Effect.
Number only, in %; omit the unit.

Example compounds with recorded Percent Effect:
1. Cc1ccnn1C(C)C(=O)Nc1cc(-c2ccncc2)[nH]n1 (stereo not drawn) :: 16.43
2. O=C(NCCNc1cccnc1)C(c1cccnc1)N1CCCC1 (stereo not drawn) :: -8.824
3. COc1cc(N2C[C@H]3CN(C(=O)c4cnccn4)C[C@H]3C2)ncn1 :: 6.779
4. Cc1nn(CC(=O)N2CCN(c3ncccn3)CC2)c(C)c1Cl :: 17.26
5. COc1ccc2c(C)c(C(=O)NC3CCOCC3)oc2c1 :: -11.52
6. COc1ccc2c(c1)CC(C1CCOCC1)N(C(=O)c1ccn(C)n1)C2 (stereo not drawn) :: 107.8
7. O=C(CCn1cnnc1)N1CCCC(c2ncc[nH]2)C1 (stereo not drawn) :: -20.34
8. COc1ccc(CNC(=O)N2CCOCC2C2CC2)c(C)c1 (stereo not drawn) :: -4.702

Note to self: Percent Effect recorded for Cc1c[nH]c(C2COCCN2C(=O)CCc2c(C)n[nH]c2C)n1 (stereo not drawn) was 111

Lab note: O=C(NCCN1CCCCC1)C(c1ccccc1)N1CCCC1 (stereo not drawn) gave Percent Effect of 103.1

The compound CCc1nncn1CCNC(=O)Nc1ccc(OC)c(C)c1 showed Percent Effect equal to -6.777

Query O=C(NCCN1CCOCC1)C(OC1CCCC1)c1ccccc1 (stereo not drawn) yields Percent Effect of 1.172

The recorded Percent Effect for entry O=C(NCCn1cccc1)C(c1cccnc1)N1CCCC1 (stereo not drawn) equals 4.567

Query Cc1cccc(CCC(=O)N2CCOCC2c2c(C)n[nH]c2C)c1 (stereo not drawn) yields Percent Effect of 9.952

Record summary for Cc1nc(CN2CC[C@@H](OCC3CC3)[C@@H]2Cc2cccnc2)cs1.O=C(O)C(F)(F)F.O=C(O)C(F)(F)F : reported Percent Effect = 96.59

Looking up O=C(NCCn1cccc1)C(c1ccccc1)N1CCCC1 (stereo not drawn) , I found its Percent Effect recorded as 123.6

response.value for Cc1n[nH]c(C)c1C1CCCN1C(=O)CNC(=O)C(C)(C)C (stereo not drawn) (field: Percent Effect) = 1.097

The reported Percent Effect of the compound Cn1nccc1C(=O)N1CCCC1c1ccc(C(=O)N2CCOCC2)s1 (stereo not drawn) was -16.33

* * *

tested on: Wolbachia pipientis; assay: Anti-Wolbachia Cell-Based Screen; type: functional; set-up: scale not given: in the data most compounds retested in dose-response had high values; details: 5 µM
About 13,000 (27%) of roughly 48,000 compounds showed an effect of 50% or more. The list shows a part of the results.
Recorded Percent Effect values for a group of compounds are listed next.
Return type: number; implicit unit %.

Solved entries:
1) Cc1cc(-c2cc(N)c(=O)n(CC(=O)NC3CCCCC3)n2)c(C)o1 :: 117.4
2) CCc1cnc(C)nc1NCCNc1nc(C)cc(=O)[nH]1 :: -6.452
3) CC(NC(=O)NCCCc1n[nH]c(N)c1C#N)c1ccccc1 (stereo not drawn) :: 11.96
4) CCCc1cc(NC2CCc3ncnn3C2)n2ncnc2n1 (stereo not drawn) :: -15.24
5) Cc1cc(C)c2cc(CNCC3CCCO3)c3nn(C)c(=O)n3c2c1 (stereo not drawn) :: -6.505
6) Cc1cc(C(=O)NCCN2CCC(C)CC2)nn1C(C)(C)C :: 102.5
7) Cc1noc(C)c1C(=O)N1Cc2ncn(C)c2C(COCC2CC2)C1.O=C(O)C(F)(F)F (stereo not drawn) :: 110.4
8) Cn1cnc2c1C(COCC1CCOCC1)CN(C(=O)c1ccco1)C2.O=C(O)C(F)(F)F (stereo not drawn) :: -6.702

Entry Cc1ccc(C(=O)OC(C)Cn2cccn2)c(=O)[nH]1 (stereo not drawn) , tested on Wolbachia pipientis, has a reported Percent Effect of -0.638

Percent Effect value, target or system Wolbachia pipientis, for CCc1ncncc1C(=O)NCCN1CCC(C)CC1 : 6.983

Record Cn1cc(CN2CC[C@H]3OCC[C@@H](C(=O)N4CCCCO4)[C@@H]3C2)cn1 has Wolbachia pipientis Percent Effect equal to 16.39

Per the reported Wolbachia pipientis data, CC1CCCCN1CCNC(=O)c1ccccc1N1CCOCC1 (stereo not drawn) has Percent Effect of 19.03

Short answer on Wolbachia pipientis for Cc1cc(C(=O)NCCN2CCCCC2C)nn1C(C)(C)C (stereo not drawn) , Percent Effect: 107.2

Per the reported Wolbachia pipientis data, O=C(Nc1ccccn1)NC1CCN(c2ccccc2OC(F)F)C1 (stereo not drawn) has Percent Effect of -25.38

Field Percent Effect (system: Wolbachia pipientis) for entry CC1CCCN(CCNC(=O)c2cncnc2C(C)C)C1 (stereo not drawn) = 11.51

Let me check: Cc1ccsc1C(=O)N1Cc2ncn(C)c2C(COCC2CC2)C1.O=C(O)C(F)(F)F (stereo not drawn) , system Wolbachia pipientis, measured Percent Effect is 46.58

Lab note: compound CC1CCCCN1CCNC(=O)c1ccn(-c2ccc(F)cc2)n1 (stereo not drawn) tested on Wolbachia pipientis; recorded Percent Effect was 4.653

Kindly note: Wolbachia pipientis, CCOC(=O)CCC(=O)N1CC(c2nc(Cc3ccccc3)no2)C1 , Percent Effect value reported: -13.25

Response field Percent Effect (Wolbachia pipientis) for item CCc1nc2c(c(N3CCOCC3)n1)CCN(C(=O)c1ccon1)CC2 : 0.9669

The value of Percent Effect recorded for CCN(C(=O)CN1CCC(c2ccccc2)C1)C1CC1 (stereo not drawn) when tested on Wolbachia pipientis reads 4.674

Numbers sourced from ChEMBL document CHEMBL3988442.
